Test: Plasma and brain concentrations in 6 Hz studies (LC-MS/MS)
Assay type: in vivo, mouse
Conditions: mouse, brain, intraperitoneal, Studies 3B+3C combined, analyte Levetiracetam; 300 mg/kg IP + Compound A 4 mg/kg PO; read-out: Brain
Procedure: Sample Collection and Preparation: Mice were anesthetized by isoflurane inhalation (TECH-018) until they reached a surgical plane of anesthesia. Then a syringe (1 mL syringe with a 22 gauge needle) was inserted under the sternum into the heart (TECH-031). Approximately 0.5 mL of blood was collected, deposited into a K2EDTA tube, and stored on ice. Animals were then euthanized by cervical dislocation (TECH-018). […] Samples were analyzed by a research-grade LC-MS/MS method as follows: […]

- COMPOUND: "CC[C@@H](C(N)=O)N1CCCC1=O [Levetiracetam, reference compound]"
  concentration at 1 h: "1050 µM"
